target: human TAS2R1 (Homo sapiens); construct: expressed in transfected cells; host or cells: HEK293T-Gα16gust44; experiment: Calcium imaging assay (FLIPR), HEK293T-Gα16gust44 cells transfected with human TAS2R1; format: cell-based; conditions: Time 293.547 s
molecules and their reported RLU

{"chemical-smiles": "C[C@H](CCC(=O)NCCS(=O)(=O)O)[C@H]1CC[C@H]2[C@@H]3CC[C@@H]4C[C@H](O)CC[C@]4(C)[C@H]3CC[C@]12C", "assay-target": "human TAS2R1 (Homo sapiens)", "RLU [RLU]": -154.558}
{"chemical-smiles": "C[C@H](CCC(=O)NCCS(=O)(=O)O)[C@H]1CC[C@H]2[C@@H]3[C@H](O)C[C@@H]4C[C@H](O)CC[C@]4(C)[C@H]3C[C@H](O)[C@]12C", "assay-target": "human TAS2R1 (Homo sapiens)", "RLU [RLU]": -10.6071}
{"chemical-smiles": "C[C@H](CCC(=O)O)[C@H]1CC[C@H]2[C@@H]3CC[C@@H]4C[C@H](O)CC[C@]4(C)[C@H]3C[C@H](O)[C@]12C", "assay-target": "human TAS2R1 (Homo sapiens)", "RLU [RLU]": 151.715}
{"chemical-smiles": "C[C@H](CCC(=O)NCC(=O)O)[C@H]1CC[C@H]2[C@@H]3[C@H](O)C[C@@H]4C[C@H](O)CC[C@]4(C)[C@H]3C[C@H](O)[C@]12C", "assay-target": "human TAS2R1 (Homo sapiens)", "RLU [RLU]": 58.9267}

====

Item-by-item account of RLU, fluorescence trace
Target: human TAS2R4 (Homo sapiens, UniProt Q9NYW5)
Construct: expressed in transfected cells; host or cells: HEK293T-Gα16gust44
Sequence (Q9NYW5 1-299): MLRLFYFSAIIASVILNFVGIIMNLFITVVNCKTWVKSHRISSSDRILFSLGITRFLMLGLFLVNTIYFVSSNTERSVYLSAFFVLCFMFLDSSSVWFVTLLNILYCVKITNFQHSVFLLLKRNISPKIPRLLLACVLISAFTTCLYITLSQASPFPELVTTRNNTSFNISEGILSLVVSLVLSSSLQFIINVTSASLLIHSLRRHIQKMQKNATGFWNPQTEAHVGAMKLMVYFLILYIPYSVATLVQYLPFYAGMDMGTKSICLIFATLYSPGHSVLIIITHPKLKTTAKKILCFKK
Test: Calcium imaging assay (FLIPR), HEK293T-Gα16gust44 cells transfected with human TAS2R4; note: test concentration or dose not given here
Type: cell-based
Conditions: Time (s) 110.781 (TCA, TLCA: 110.782)

{"chemical-smiles": "C[C@H](CCC(=O)NCCS(=O)(=O)O)[C@H]1CC[C@H]2[C@@H]3[C@H](O)C[C@@H]4C[C@H](O)CC[C@]4(C)[C@H]3C[C@H](O)[C@]12C", "assay-target": "human TAS2R4 (Homo sapiens, UniProt Q9NYW5)", "RLU, fluorescence trace, RLU": 644.691}
{"chemical-smiles": "C[C@H](CCC(=O)O)[C@H]1CC[C@H]2[C@@H]3[C@@H](O)C[C@@H]4C[C@H](O)CC[C@]4(C)[C@H]3CC[C@]12C", "assay-target": "human TAS2R4 (Homo sapiens, UniProt Q9NYW5)", "RLU, fluorescence trace, RLU": 276.445}
{"chemical-smiles": "C[C@H](CCC(=O)O)[C@H]1CC[C@H]2[C@@H]3CC[C@@H]4C[C@H](O)CC[C@]4(C)[C@H]3C[C@H](O)[C@]12C", "assay-target": "human TAS2R4 (Homo sapiens, UniProt Q9NYW5)", "RLU, fluorescence trace, RLU": 336.947}

====

Molecular target: human TAS2R1 (Homo sapiens, UniProt Q9NYW7)
Construct: expressed in transfected cells; host or cells: HEK293T-Gα16gust44
Sequence (Q9NYW7 whole entry): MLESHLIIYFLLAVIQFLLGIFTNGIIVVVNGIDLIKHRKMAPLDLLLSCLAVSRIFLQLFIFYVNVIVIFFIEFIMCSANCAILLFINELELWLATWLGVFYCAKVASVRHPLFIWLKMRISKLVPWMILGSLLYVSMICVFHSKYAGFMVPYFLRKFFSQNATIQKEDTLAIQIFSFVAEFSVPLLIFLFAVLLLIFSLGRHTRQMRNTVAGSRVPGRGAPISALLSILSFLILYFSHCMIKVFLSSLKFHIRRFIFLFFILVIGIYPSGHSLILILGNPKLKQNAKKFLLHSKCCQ
Experiment: Calcium imaging assay (FLIPR), HEK293T-Gα16gust44 cells transfected with human TAS2R1
Assay type: cell-based
Conditions: Time 239.547 s
Description: This set of bile acids was chosen because of their commercial availability in high purities, their diversity within the class of bile acids and their previous detection and quantitation in human blood. Stock solutions were prepared in DMSO. […] Measured data were negative control corrected by subtracting the signal of the mock-transfected cells and exported to Microsoft Excel using the FLIPR software ScreenWorks 4.2. […]
Listed below: RLU values for each entry.
measure-name: RLU (RLU)

{"chemical-smiles": "C[C@H](CCC(=O)NCCS(=O)(=O)O)[C@H]1CC[C@H]2[C@@H]3CC[C@@H]4C[C@H](O)CC[C@]4(C)[C@H]3CC[C@]12C", "measured-number": -81.6561}
{"chemical-smiles": "C[C@H](CCC(=O)NCC(=O)O)[C@H]1CC[C@H]2[C@@H]3[C@H](O)C[C@@H]4C[C@H](O)CC[C@]4(C)[C@H]3C[C@H](O)[C@]12C", "measured-number": 82.2731}
{"chemical-smiles": "C[C@H](CCC(=O)NCCS(=O)(=O)O)[C@H]1CC[C@H]2[C@@H]3[C@H](O)C[C@@H]4C[C@H](O)CC[C@]4(C)[C@H]3C[C@H](O)[C@]12C", "measured-number": 27.332}
{"chemical-smiles": "C[C@H](CCC(=O)O)[C@H]1CC[C@H]2[C@@H]3CC[C@@H]4C[C@H](O)CC[C@]4(C)[C@H]3C[C@H](O)[C@]12C", "measured-number": 164.983}

====

Quick reference for RLU, fluorescence trace among some compounds
Molecular target: human TAS2R4 (Homo sapiens, UniProt Q9NYW5)
Construct: expressed in transfected cells; host or cells: HEK293T-Gα16gust44
Experiment: Calcium imaging assay (FLIPR), HEK293T-Gα16gust44 cells transfected with human TAS2R4; note: test concentration or dose not given here
Assay type: cell-based
Conditions: Time (s) 128.781 (TCA, TLCA: 128.782)
Procedure: This set of bile acids was chosen because of their commercial availability in high purities, their diversity within the class of bile acids and their previous detection and quantitation in human blood. Stock solutions were prepared in DMSO. […] Measured data were negative control corrected by subtracting the signal of the mock-transfected cells and exported to Microsoft Excel using the FLIPR software ScreenWorks 4.2. […]

{"compound": "C[C@H](CCC(=O)O)[C@H]1CC[C@H]2[C@@H]3CC[C@@H]4C[C@H](O)CC[C@]4(C)[C@H]3C[C@H](O)[C@]12C [Deoxycholic Acid, deoxycholic acid]", "assay-target": "human TAS2R4 (Homo sapiens, UniProt Q9NYW5)", "RLU, fluorescence trace / RLU": 319.908}
{"compound": "C[C@H](CCC(=O)O)[C@H]1CC[C@H]2[C@@H]3[C@H](O)C[C@@H]4C[C@H](O)CC[C@]4(C)[C@H]3C[C@H](O)[C@]12C [Cholic Acid, cholic acid]", "assay-target": "human TAS2R4 (Homo sapiens, UniProt Q9NYW5)", "RLU, fluorescence trace / RLU": 464.071}
{"compound": "C[C@H](CCC(=O)O)[C@H]1CC[C@H]2[C@@H]3[C@@H](O)C[C@@H]4C[C@H](O)CC[C@]4(C)[C@H]3CC[C@]12C [Ursodeoxycholic Acid, ursodeoxycholic acid]", "assay-target": "human TAS2R4 (Homo sapiens, UniProt Q9NYW5)", "RLU, fluorescence trace / RLU": 226.16}
{"compound": "C[C@H](CCC(=O)NCC(=O)O)[C@H]1CC[C@H]2[C@@H]3[C@H](O)C[C@@H]4C[C@H](O)CC[C@]4(C)[C@H]3C[C@H](O)[C@]12C [Glycocholic Acid, glycocholic acid]", "assay-target": "human TAS2R4 (Homo sapiens, UniProt Q9NYW5)", "RLU, fluorescence trace / RLU": 446.993}
{"compound": "C[C@H](CCC(=O)NCCS(=O)(=O)O)[C@H]1CC[C@H]2[C@@H]3[C@H](O)C[C@@H]4C[C@H](O)CC[C@]4(C)[C@H]3C[C@H](O)[C@]12C [Taurocholic Acid, taurocholic acid]", "assay-target": "human TAS2R4 (Homo sapiens, UniProt Q9NYW5)", "RLU, fluorescence trace / RLU": 590.827}
{"compound": "C[C@H](CCC(=O)NCCS(=O)(=O)O)[C@H]1CC[C@H]2[C@@H]3CC[C@@H]4C[C@H](O)CC[C@]4(C)[C@H]3CC[C@]12C [Taurolithocholic Acid, taurolithocholic acid]", "assay-target": "human TAS2R4 (Homo sapiens, UniProt Q9NYW5)", "RLU, fluorescence trace / RLU": 270.269}

====

molecular target: human TAS2R1 (Homo sapiens); construct: expressed in transfected cells; host or cells: HEK293T-Gα16gust44; experiment: Calcium imaging assay (FLIPR), HEK293T-Gα16gust44 cells transfected with human TAS2R1; assay type: cell-based; conditions: calcium trace, sheet TAS2R1; Time 353.547 s
Reported RLU values are given for each entry in this list.

{"compound": "C[C@H](CCC(=O)NCCS(=O)(=O)O)[C@H]1CC[C@H]2[C@@H]3CC[C@@H]4C[C@H](O)CC[C@]4(C)[C@H]3CC[C@]12C [Taurolithocholic Acid, taurolithocholic acid]", "RLU / RLU": -228.211}
{"compound": "C[C@H](CCC(=O)NCC(=O)O)[C@H]1CC[C@H]2[C@@H]3[C@H](O)C[C@@H]4C[C@H](O)CC[C@]4(C)[C@H]3C[C@H](O)[C@]12C [Glycocholic Acid, glycocholic acid]", "RLU / RLU": 51.461}
{"compound": "C[C@H](CCC(=O)NCCS(=O)(=O)O)[C@H]1CC[C@H]2[C@@H]3[C@H](O)C[C@@H]4C[C@H](O)CC[C@]4(C)[C@H]3C[C@H](O)[C@]12C [Taurocholic Acid, taurocholic acid]", "RLU / RLU": 3.282}
{"compound": "C[C@H](CCC(=O)O)[C@H]1CC[C@H]2[C@@H]3CC[C@@H]4C[C@H](O)CC[C@]4(C)[C@H]3C[C@H](O)[C@]12C [Deoxycholic Acid, deoxycholic acid]", "RLU / RLU": 137.138}

Reference source: paper PMC10247784
